# Test system: HIV-1RF
# Experimental protocol: Anti-HIV cytoprotection in CEM-SS cells infected with HIV-1RF (XTT)
# Format: cell-based
# Measurement conditions: Human immunodeficiency virus 1, CEM-SS, 144 h, read-out: CEM-SS/HIV-1RF EC50 ± SD, six days, XTT
Endpoint label: EC50

Form field EC50, entry CC(C)CN(C[C@@H](O)[C@H](Cc1ccccc1)NC(=O)O[C@H]1CO[C@H]2OCC[C@H]21)S(=O)(=O)c1ccc(N)cc1 [Darunavir, reference compound] : < 700 pM

###

In this section we review reported Dog Plasma Protein Binding Fu ± SD values for a set of compounds.
# Tested on: dog plasma proteins
# Experimental protocol: Plasma protein binding by equilibrium dialysis, dog plasma
# Assay type: in vitro ADME
# Measurement conditions: fraction unbound
Give the figure only, with no unit attached.

Guide cases for Dog Plasma Protein Binding Fu ± SD, answers given:
COCCOCCOCCOCCOCCOCCOCCOC(=O)NC(C(=O)NC(Cc1ccccc1)C(O)CN(Cc1ccc(-c2ccccn2)cc1)NC(=O)C(NC(=O)OC)C(C)(C)C)C(C)(C)C (stereo not shown) [mono-mPEG7-Atazanavir] = 0.306
COCCOCCOCCOCCOCCOC(=O)NC(C(=O)NC(Cc1ccccc1)C(O)CN(Cc1ccc(-c2ccccn2)cc1)NC(=O)C(NC(=O)OC)C(C)(C)C)C(C)(C)C (stereo not shown) [mono-mPEG5-Atazanavir] = 0.695
COCCOCCOCCOCCOCCOCCOC(=O)NC(C(=O)NC(Cc1ccccc1)C(O)CN(Cc1ccc(-c2ccccn2)cc1)NC(=O)C(NC(=O)OC)C(C)(C)C)C(C)(C)C (stereo not shown) [mono-mPEG6-Atazanavir] = 0.497

Now let's try a different one.
Form field Dog Plasma Protein Binding Fu ± SD, entry COCCOC(=O)NC(C(=O)NC(Cc1ccccc1)C(O)CN(Cc1ccc(-c2ccccn2)cc1)NC(=O)C(NC(=O)OC)C(C)(C)C)C(C)(C)C (stereo not shown) [mono-mPEG1-Atazanavir] : 0.208

###

In this section we review reported CEM-SS TC50 ± SD values for a set of compounds.
# System: CEM-SS cells
# Measurement conditions: absence of viral infection
# output: bare number, implied unit µM

Guide cases for CEM-SS TC50 ± SD, answers given:
CCC(C1=C(O)CC(CCCNC(=O)OCCOCCOCCOC)(CCc2ccccc2)OC1=O)c1cccc(NS(=O)(=O)c2ccc(C(F)(F)F)cn2)c1 (mixture of isomers) = 67.6
CCC(C1=C(O)CC(CCCNC(=O)OCCOC)(CCc2ccccc2)OC1=O)c1cccc(NS(=O)(=O)c2ccc(C(F)(F)F)cn2)c1 (mixture of isomers) = 49.5
CCC(C1=C(O)CC(CCCNC(=O)OC)(CCc2ccccc2)OC1=O)c1cccc(NS(=O)(=O)c2ccc(C(F)(F)F)cn2)c1 (mixture of isomers) = 54.3

Now let's try a different one.
Form field CEM-SS TC50 ± SD, entry CCC(C1=C(O)CC(CCCNC(=O)OCCOCCOCCOCCOCCOC)(CCc2ccccc2)OC1=O)c1cccc(NS(=O)(=O)c2ccc(C(F)(F)F)cn2)c1 (mixture of isomers) : 86.1

###

# Experimental protocol: Metabolic stability in cynomolgus monkey hepatocytes
# Type: in vitro ADME
# Measurement conditions: cynomolgus monkey
Endpoint label: half-life at 0.1 μM (h)
# output: bare number, implied unit h

Form field half-life at 0.1 μM, entry COCCOCCOCCOC(=O)NC(C(=O)NC(Cc1ccccc1)C(O)CN(Cc1ccc(-c2ccccn2)cc1)NC(=O)C(NC(=O)OC)C(C)(C)C)C(C)(C)C (stereo not shown) [mono-mPEG3-Atazanavir] : 1.66

###

In this section we review reported fraction unbound at 2 h, 5 μM values for a set of molecules.
# Experimental protocol: Plasma protein binding by equilibrium dialysis, dog plasma
# Assay type: in vitro ADME
# Measurement conditions: read-out: Dog Plasma Protein Binding Fu ± SD

COC(=O)N[C@H](C(=O)N[C@@H](Cc1ccccc1)[C@@H](O)CN(Cc1ccc(-c2ccccn2)cc1)NC(=O)[C@@H](NC(=O)OC)C(C)(C)C)C(C)(C)C [Atazanavir, reference compound] = 0.139

Now let's try a different one.
Form field fraction unbound at 2 h, 5 μM, entry COCCOCCOCCOC(=O)NC(C(=O)NC(Cc1ccccc1)C(O)CN(Cc1ccc(-c2ccccn2)cc1)NC(=O)C(NC(=O)OC)C(C)(C)C)C(C)(C)C (centres unmarked) [mono-mPEG3-Atazanavir] : 0.252

###

# System: human liver microsomal proteins
# Experimental protocol: Microsomal protein binding by equilibrium dialysis
# Format: in vitro ADME
# Measurement conditions: human liver microsomes, 3 μM, fraction unbound
Endpoint label: Microsomal Protein Binding Fu ± SD

COCCOCCOCCOCCOCCOC(=O)N[C@@H](C(=O)NC(Cc1ccccc1)[C@@H](O)CN(Cc1ccc(-c2ccccn2)cc1)NC(=O)[C@H](NC(=O)OCCOCCOCCOCCOCCOC)C(C)(C)C)C(C)(C)C (stereo partly drawn) [di-mPEG5-Atazanavir] = highly unbound
CCC(C1=C(O)CC(CCCNC(=O)OCCOCCOCCOCCOCCOC)(CCc2ccccc2)OC1=O)c1cccc(NS(=O)(=O)c2ccc(C(F)(F)F)cn2)c1 (mixture of isomers) [mPEG5-OCO—NH-Tipranavir] = highly unbound
COCCOCCOCCOCCOCCOCCOCCNc1ccc(S(=O)(=O)N(CC(C)C)CC(O)[C@H](Cc2ccccc2)NC(=O)O[C@H]2CO[C@H]3OCC[C@H]32)cc1 (stereo partly drawn) [mPEG7-N-Darunavir] = 0.973 ± 0.0139

###

In this section we review reported XTT (PBMC) TC50 values for a set of compounds.
# System: PBMCs
# Experimental protocol: PBMC cytotoxicity (XTT)
# Format: cell-based, human
# Measurement conditions: 7 days
# output: bare number, implied unit µM

Guide cases for XTT (PBMC) TC50, answers given:
COC(=O)N[C@H](C(=O)N[C@@H](Cc1ccccc1)[C@@H](O)CN(Cc1ccc(-c2ccccn2)cc1)NC(=O)[C@@H](NC(=O)OC)C(C)(C)C)C(C)(C)C [Atazanavir, reference compound] = 109.4
COCCOCCOCCOC(=O)NC(C(=O)NC(Cc1ccccc1)C(O)CN(Cc1ccc(-c2ccccn2)cc1)NC(=O)C(NC(=O)OC)C(C)(C)C)C(C)(C)C (centres unmarked) = 338.9
COCCOCCOCCOCCOCCNc1ccc(S(=O)(=O)N(CC(C)C)CC(O)[C@H](Cc2ccccc2)NC(=O)O[C@H]2CO[C@H]3OCC[C@H]32)cc1 (some centres unmarked) = 223.5
COCCOCCOCCOCCOCCOCCOCCNc1ccc(S(=O)(=O)N(CC(C)C)CC(O)[C@H](Cc2ccccc2)NC(=O)O[C@H]2CO[C@H]3OCC[C@H]32)cc1 (some centres unmarked) = 381.3

Form field XTT (PBMC) TC50, entry CC(C)CN(C[C@@H](O)[C@H](Cc1ccccc1)NC(=O)O[C@H]1CO[C@H]2OCC[C@H]21)S(=O)(=O)c1ccc(N)cc1 [Darunavir, reference compound] : 328.4

###

# System: Caco-2 cells
# Experimental protocol: Bi-directional permeability in Caco-2 monolayers
# Measurement conditions: Caco-2 monolayers
In this section we review reported Efflux ratio (B→A/A→B) values for a set of molecules.
Give the figure only, with no unit attached.

Guide cases for Efflux ratio (B→A/A→B), answers given:
COCCOC(=O)NC(C(=O)NC(Cc1ccccc1)C(O)CN(Cc1ccc(-c2ccccn2)cc1)NC(=O)C(NC(=O)OC)C(C)(C)C)C(C)(C)C (stereo not drawn) = 26
COCCOCCOCCOc1ccc(C[C@H](NC(=O)O[C@H]2CO[C@H]3OCC[C@H]32)C(O)CN(CC(C)C)S(=O)(=O)c2ccc(N)cc2)cc1 (stereo partly drawn) = 32
COCCOCCOCCOCCOCCOC(=O)NC(C(=O)NC(Cc1ccccc1)C(O)CN(Cc1ccc(-c2ccccn2)cc1)NC(=O)C(NC(=O)OC)C(C)(C)C)C(C)(C)C (stereo not drawn) = 88
COCCOCCOCCOCCOCCOCCOC(=O)NC(C(=O)NC(Cc1ccccc1)C(O)CN(Cc1ccc(-c2ccccn2)cc1)NC(=O)C(NC(=O)OC)C(C)(C)C)C(C)(C)C (stereo not drawn) = 68
COCCOCCOCCOCCOCCOCCOCCOC(=O)NC(C(=O)NC(Cc1ccccc1)C(O)CN(Cc1ccc(-c2ccccn2)cc1)NC(=O)C(NC(=O)OC)C(C)(C)C)C(C)(C)C (stereo not drawn) = 52

Form field Efflux ratio (B→A/A→B), entry COCCOCCOCCOCCOCCNc1ccc(S(=O)(=O)N(CC(C)C)CC(O)[C@H](Cc2ccccc2)NC(=O)O[C@H]2CO[C@H]3OCC[C@H]32)cc1 (stereo partly drawn) : 21

Form field Efflux ratio (B→A/A→B), entry COCCOCCOCCOCCOCCOCCOCCOc1ccc(C[C@H](NC(=O)O[C@H]2CO[C@H]3OCC[C@H]32)C(O)CN(CC(C)C)S(=O)(=O)c2ccc(N)cc2)cc1 (stereo partly drawn) : 33
